experimental.protocol: Volatility of perfuming compounds (Tables 4 to 10), with top/middle/bottom note type
Assay type: physicochemical
protocol.conditions: Table 6, perfuming compounds having a fruity note; note type by volatility
measured.endpoint: Type

{"molecule": "CC(C)C(=O)OCCOc1ccccc1 [2-phenoxyethyl 2-methylpropanoate]", "measured.endpoint": "Type", "value.reported": "Bottom"}
{"molecule": "CCCCCCCC1CCCC(=O)O1 (racemic) [(+−)-6-heptyltetrahydro-2H-pyran-2-one]", "measured.endpoint": "Type", "value.reported": "Bottom"}
{"molecule": "CCC(=O)OCC(C)(C)OC(C)C1CCCC(C)(C)C1 (single isomer, unassigned; (+))", "measured.endpoint": "Type", "value.reported": "Bottom"}
